Assay: Solubility of BSA-containing formulations (post vortexing, 30 min and overnight at 18° C.)
Format: physicochemical
Conditions: BSA-containing formulation, aqueous with cosolvent or surfactant or cyclodextrin, compound 2 mg/mL; BSA 60 mg/mL; post vortexing; read-out: Solubility of BSA-containing formulations post vortexing, 60 mg/mL
MEASURE NAME: solubility at 30 s

* CCN1/C(=C/C=C/c2oc3ccccc3[n+]2CC)Oc2ccccc21 [JAC-R1, 3′,3′-Diethyloxacarbocyanine iodide] | < 2000 µg/mL

Let us examine a further case.
Noted for CCN1/C(=C/C(C)=C/c2sc3ccccc3[n+]2CC)Sc2ccccc21 [JAC-B2.5] : its solubility at 30 s reads < 2000 µg/mL

----------
Assay: Solubility of glycerol-containing formulations (post vortexing, 30 min and overnight at 18° C.)
Format: physicochemical
Conditions: glycerol-containing formulation, aqueous with cosolvent or surfactant or cyclodextrin, compound 2 mg/mL; 40% glycerol; post vortexing; read-out: Solubility of glycerol-containing formulations post vortexing, 40%
MEASURE NAME: solubility at 30 s

Reference set, count: 2
- CCN1/C(=C/C=C/c2sc3ccccc3[n+]2CC)Sc2ccccc21 [JAC-B1, 3′,3′-Diethylthiacarbocyanine iodide]: < 2000 µg/mL
- CCN1/C(=C/C(C)=C/c2sc3ccccc3[n+]2CC)Sc2ccccc21 [JAC-B2.5]: < 2000 µg/mL

Noted for CCN1/C(=C/C=C/c2oc3ccccc3[n+]2CC)Oc2ccccc21 [JAC-R1, 3′,3′-Diethyloxacarbocyanine iodide] : its solubility at 30 s reads < 2000 µg/mL

----------
Assay: Solubility of glycerol-containing formulations (post vortexing, 30 min and overnight at 18° C.)
Format: physicochemical
Conditions: glycerol-containing formulation, aqueous with cosolvent or surfactant or cyclodextrin, compound 2 mg/mL; 50% glycerol; post vortexing; read-out: Solubility of glycerol-containing formulations post vortexing, 50%
Below, each entry is listed with its recorded solubility at 30 s.

Reference set, count: 2
* CCN1/C(=C/C=C/c2sc3ccccc3[n+]2CC)Sc2ccccc21 [JAC-B1, 3′,3′-Diethylthiacarbocyanine iodide] | > 2000 µg/mL
* CCN1/C(=C/C=C/c2oc3ccccc3[n+]2CC)Oc2ccccc21 [JAC-R1, 3′,3′-Diethyloxacarbocyanine iodide] | < 2000 µg/mL

Noted for CCN1/C(=C/C(C)=C/c2sc3ccccc3[n+]2CC)Sc2ccccc21 [JAC-B2.5] : its solubility at 30 s reads < 2000 µg/mL

----------
Assay: Solubility of BSA-containing formulations (post vortexing, 30 min and overnight at 18° C.)
Format: physicochemical
Settings: BSA-containing formulation, 18 °C, aqueous with cosolvent or surfactant or cyclodextrin, compound 2 mg/mL; BSA 100 mg/mL; after 30 minutes incubation at 18° C.; read-out: Solubility of BSA-containing formulations after 30 min incubation at 18° C., 100 mg/mL
Procedure: Vortexing was conducted using a Denville Vortexer 59 (Denville Scientific Inc.), at maximum speed for 30 seconds. As used herein, the term overnight refers to a period lasting at least about 12-24 hours.
Below, each entry is listed with its recorded solubility at 30 min.

• CCN1/C(=C/C(C)=C/c2sc3ccccc3[n+]2CC)Sc2ccccc21 = < 2 mg/mL
• CCN1/C(=C/C=C/c2oc3ccccc3[n+]2CC)Oc2ccccc21 [JAC-R1, 3′,3′-Diethyloxacarbocyanine iodide] = < 2 mg/mL

Noted for CCN1/C(=C/C=C/c2sc3ccccc3[n+]2CC)Sc2ccccc21 [JAC-B1, 3′,3′-Diethylthiacarbocyanine iodide] : its solubility at 30 min reads > 2 mg/mL

Hey, just so you know, these numbers are from patent US20230150960A1.
